Each recorded value in this set is attributed to patent US10640495B2.

Assayed target: human TrkA (Homo sapiens (Human), UniProt P04629)
Sequence (P04629 440-796): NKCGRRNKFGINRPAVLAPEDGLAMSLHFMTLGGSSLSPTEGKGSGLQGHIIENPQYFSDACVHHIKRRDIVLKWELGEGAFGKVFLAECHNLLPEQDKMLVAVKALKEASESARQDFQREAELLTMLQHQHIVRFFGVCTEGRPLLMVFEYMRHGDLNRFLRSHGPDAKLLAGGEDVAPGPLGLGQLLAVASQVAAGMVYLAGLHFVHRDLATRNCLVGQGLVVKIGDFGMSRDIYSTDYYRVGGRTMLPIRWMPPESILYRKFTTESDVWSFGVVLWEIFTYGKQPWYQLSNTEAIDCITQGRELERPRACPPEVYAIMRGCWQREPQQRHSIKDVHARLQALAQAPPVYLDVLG
Assay notes: Human TrkA inhibition assay (Test Example 2)
Type: biochemical
Measurement parameters: Table 157, human TrkA inhibition; read-out: IC50
Readout: IC50

Cc1c(-c2cnc3c(cnn3C)c2)nn(-c2ccccc2)c1NC(=O)N[C@@H]1CN(CCC(F)(F)F)O[C@H]1c1ccc(F)c(F)c1 (racemic) = > 1000 nM
COCCN1C[C@@H](NC(=O)Nc2c(C)c(CN(C)C)nn2-c2ccccc2)[C@H](c2ccc(F)c(F)c2)O1 = 100 to 1000 nM

**Q:** Note down IC50 recorded for COCCN1C[C@@H](NC(=O)Nc2c(C)c(CCN(C)C)nn2-c2ccccc2)[C@H](c2ccc(F)c(F)c2)O1
**A:** < 100 nM

**Q:** Note down IC50 recorded for COCCN1C[C@@H](NC(=O)Nc2c(C)c(-c3cnc(N4CC(N(C)C)C4)nc3)nn2-c2ccccc2)[C@H](c2ccnc(F)c2)O1 (racemic)
**A:** < 100 nM

**Q:** Note down IC50 recorded for COCCN1C[C@@H](NC(=O)Nc2c(C)c(-c3ccnc(CO)c3)nn2-c2ccccc2)[C@H](c2ccc(F)c(F)c2)O1
**A:** < 100 nM

**Q:** Note down IC50 recorded for CNC(=O)c1cc(-c2nn(-c3ccccc3)c(NC(=O)N[C@@H]3CN(CCC(F)(F)F)O[C@H]3c3ccc(F)c(F)c3)c2C)cnc1OC (racemic)
**A:** 100 to 1000 nM

====

Assayed target: human TrkA (Homo sapiens (Human), UniProt P04629)
Assay notes: Human TrkA inhibition assay (Test Example 2)
Type: biochemical
Measurement parameters: human TrkA 1 nmol/L, ATP 500 μmol/L, 120 min at 37° C.; read-out: IC50 values (TrkA phosphorylation inhibition)
Recorded IC50, one value per entry.
Numeric answer only, unit nM assumed.

Known results for compounds:
COCCN1C[C@@H](NC(=O)Nc2c(C)c(-c3cnn(C)c3)nn2C2CCC2)[C@H](c2ccc(F)c(F)c2)O1 (racemic) = 330
COCCN1C[C@@H](NC(=O)Nc2c(C)c(-c3ccc4nc(C(N)=O)cn4c3)nn2-c2ccccc2)[C@H](c2cnc(F)c(F)c2)O1 (racemic) = 2
COCCN1C[C@@H](c2ccnc(F)c2)[C@H](NC(=O)Nc2c(C)c(-c3cnn(C)c3)nn2-c2ccccc2)O1 (racemic) = 30

**Q:** Note down IC50 recorded for COCCN1C[C@@H](NC(=O)Nc2c(C)c(-c3cnc4c(c3)CC(=O)N4C)nn2-c2ccccc2)[C@H](c2cnc(F)c(F)c2)O1 (racemic)
**A:** 1.5

**Q:** Note down IC50 recorded for COCCN1C[C@@H](NC(=O)Nc2c(C)c(OCC(C)(C)O)nn2-c2ccccc2)[C@H](c2cnc(F)c(F)c2)O1
**A:** 22

**Q:** Note down IC50 recorded for COCC[C@@H]1C[C@@H](NC(=O)Nc2c(C)c(-c3cnc(C)nc3)nn2-c2ccccc2)[C@H](c2ccnc(F)c2)O1 (racemic) [Compound I-96]
**A:** 15

====

Assayed target: UniProt P04629
Assay notes: Human TrkA inhibition assay (Test Example 2)
Type: biochemical
Measurement parameters: human TrkA 1 nmol/L, ATP 500 μmol/L, 120 min at 37° C.; read-out: IC50 values (TrkA phosphorylation inhibition)
Recorded IC50, one value per entry.
Numeric answer only, unit nM assumed.

Known results for compounds:
COCCN1C[C@@H](NC(=O)Nc2c(C)c(-c3cnc4[nH]ncc4c3)nn2-c2ccccc2)[C@H](c2ccnc(F)c2)O1 (racemic) = 2.1
CNC(=O)c1ccc(-c2nn(-c3ccccc3)c(NC(=O)N[C@@H]3CN(CCOC)O[C@H]3c3ccc(F)c(F)c3)c2C)cn1 = 0.52

Okay, next one:
**Q:** Note down IC50 recorded for CNC(=O)c1cc(-c2nn(-c3ccccc3)c(NC(=O)N[C@@H]3CN(CCOC)O[C@H]3c3ccnc(F)c3)c2C)nn(C)c1=O (racemic)
**A:** 8.2

====

Recorded pIC50, one value per entry.
Assayed target: human TrkA (Homo sapiens (Human), UniProt P04629)
Assay notes: Human TrkA inhibition assay (Test Example 2)
Format: biochemical
Measurement parameters: Table 155, human TrkA inhibition; read-out: IC50
pIC50: −log10 of the molar value.

Known results for compounds:
COCCN1C[C@@H](NC(=O)Nc2c(C)c(-c3ccncc3)nn2-c2ccccc2)[C@H](c2ccc(F)c(F)c2)O1 = > 7.00
COCCN1C[C@@H](NC(=O)Nc2c(C)c(-c3ccc(C)nc3)nn2-c2ccccc2)[C@H](c2ccnc(F)c2)O1 (racemic) = > 7.00

**Q:** Note down pIC50 recorded for CNC(=O)c1cc(-c2nn(-c3ccccc3)c(NC(=O)N[C@@H]3CN(CCOC)O[C@H]3c3ccc(F)c(F)c3)c2C)cnc1OC
**A:** > 7.00

====

Assayed target: human TrkA (Homo sapiens (Human), UniProt P04629)
Assay notes: Human TrkA inhibition assay (Test Example 2)
Assay type: biochemical
Measurement parameters: Table 154, human TrkA inhibition; read-out: IC50
Procedure: Seven point five μL per well of human TrkA (PV3144, Lifetechnologies, final concentration: 1 nmol/L) suspended in the assay buffer (100 mmol/L 4-(2-hydroxyethyl)-1-piperazineethanesulfonic acid (HEPES), 10 mmol/L magnecium chloride, 0.003 vol % Brij-35, 0.004 vol % Tween20 and 1 mmol/L dithiothreitol (DTT)) was applied in a 384 well plate and the plate was pre-incubated for 15 min at room temperature with 0.4 μL of each compound (final concentration: 200 μmol/L-1 pmol/L) dissolved in DMSO. […]
pIC50: −log10 of the molar value.
Recorded pIC50, one value per entry.

Known results for compounds:
COCCC1C[C@@H](NC(=O)Nc2c(C)c(-c3cnc(COC(=O)C(C)(C)C)nc3)nn2-c2ccccc2)[C@H](c2ccccc2)O1 (stereo partly drawn) = > 7.00
COCCN1C[C@@H](NC(=O)Nc2c(C)c(-c3cnc4c(ccc(=O)n4C)c3)nn2-c2ccccc2)[C@H](c2ccnc(F)c2)O1 (racemic) = > 7.00
CCN1C[C@@H](NC(=O)Nc2c(C)c(-c3cnc4c(cnn4C)c3)nn2-c2ccccc2)[C@H](c2ccc(F)c(F)c2)O1 (racemic) = > 7.00

**Q:** # return pIC50 for COCCN1C[C@@H](NC(=O)Nc2c(C)c(-c3cnc(C(N)=O)c(F)c3)nn2-c2ccccc2)[C@H](c2cnc(F)c(F)c2)O1 (racemic) , test system: human TrkA (Homo sapiens (Human), UniProt P04629)
**A:** > 7.00

**Q:** # return pIC50 for COCCN1C[C@@H](NC(=O)Nc2c(C)c(-c3ccc(N=S(C)(C)=O)nc3)nn2-c2ccccc2)[C@H](c2ccc(F)c(F)c2)O1 , test system: human TrkA (Homo sapiens (Human), UniProt P04629)
**A:** > 7.00

**Q:** # return pIC50 for COCCN1C[C@@H](NC(=O)Nc2c(C)c(-c3ccn4c(C)nnc4c3)nn2-c2ccccc2)[C@H](c2ccc(F)cc2)O1 (racemic) , test system: human TrkA (Homo sapiens (Human), UniProt P04629)
**A:** > 7.00

====

Assayed target: human TrkA (Homo sapiens (Human), UniProt P04629)
Assay notes: Human TrkA inhibition assay (Test Example 2)
Assay type: biochemical
Measurement parameters: Table 154, human TrkA inhibition; read-out: IC50
pIC50: −log10 of the molar value.
Readout: pIC50

Known results for molecules:
COCCN1C[C@@H](NC(=O)Nc2c(C)c(-c3cnc4c(c3)nc(C(F)(F)F)n4C)nn2-c2ccccc2)[C@H](c2ccnc(F)c2)O1 (racemic) [Compound I-226] = > 7.00
COCCN1C[C@@H](NC(=O)Nc2c(C)c(-c3cnc(N4CC(OC(=O)c5ccccc5)C4)nc3)nn2-c2ccccc2)[C@H](c2cc(F)nc(F)c2)O1 (racemic) [Compound I-286] = > 7.00
COCCN1C[C@@H](NC(=O)Nc2c(C)c(-c3cnc4c(cnn4CC(F)(F)F)c3)nn2-c2ccccc2)[C@H](c2ccnc(F)c2)O1 (racemic) [Compound I-228] = > 7.00
COCC[C@@H]1C[C@@H](NC(=O)Nc2c(C)c(-c3cnc4c(c3)c(=O)n(C)n4C)nn2-c2ccccc2)[C@H](c2ccc(F)c(F)c2)O1 (racemic) [Compound I-215] = > 7.00

Okay, next one:
**Q:** Note down pIC50 recorded for COCCN1C[C@@H](NC(=O)Nc2c(C)c(-c3ccnc(C(=O)OC)c3)nn2-c2ccccc2)[C@H](c2ccnc(F)c2)O1 (racemic) [Compound I-194]
**A:** > 7.00

====

Recorded IC50, one value per entry.
Assayed target: human TrkA (Homo sapiens (Human))
Assay notes: Human TrkA inhibition assay (Test Example 2)
Assay type: biochemical
Measurement parameters: human TrkA 1 nmol/L, ATP 500 μmol/L, 120 min at 37° C.; read-out: IC50 values (TrkA phosphorylation inhibition)
Numeric answer only, unit nM assumed.

COCCN1C[C@@H](NC(=O)Nc2c(C)c(-c3cnc(OCF)nc3)nn2-c2ccccc2)[C@H](c2ccnc(F)c2)O1 (racemic) = 6.8
COCCN1C[C@@H](NC(=O)Nc2c(C)c(-c3cnc(OC)nc3)nn2-c2ccccc2)[C@H](c2cnc(F)c(F)c2)O1 [Compound I-211] = 1.5

**Q:** Note down IC50 recorded for COCCN1C[C@@H](NC(=O)Nc2c(C)c(-c3cnn(C)c3)nn2-c2ccccc2)[C@H](c2cc(F)nc(F)c2)O1 (racemic)
**A:** 4.6
